# TGT: type M1 muscarinic cholinergic receptor (Rattus norvegicus, UniProt P08482)
# Sequence (P08482 whole entry): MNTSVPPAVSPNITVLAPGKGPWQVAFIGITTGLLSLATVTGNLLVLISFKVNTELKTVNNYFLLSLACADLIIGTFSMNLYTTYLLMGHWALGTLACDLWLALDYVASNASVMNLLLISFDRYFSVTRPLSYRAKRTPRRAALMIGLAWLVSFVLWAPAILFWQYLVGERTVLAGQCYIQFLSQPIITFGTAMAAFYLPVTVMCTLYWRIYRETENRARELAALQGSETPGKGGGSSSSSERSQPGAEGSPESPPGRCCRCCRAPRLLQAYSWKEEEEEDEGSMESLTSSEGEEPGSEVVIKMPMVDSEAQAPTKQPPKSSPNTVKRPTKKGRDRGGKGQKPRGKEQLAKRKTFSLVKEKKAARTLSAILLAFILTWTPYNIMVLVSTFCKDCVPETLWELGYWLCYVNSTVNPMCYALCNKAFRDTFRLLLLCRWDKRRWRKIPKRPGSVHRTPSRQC
# ASSAY_TEXT: biochemical
# Assay type: binding
# CONDITION_SUMMARY: displacement of 3H-PZ, rat hippocampus homogenate, 4° C., 2 hours; read-out: IC50 3H-PZ (M1)
ENDPOINT_NAME: IC50 (µM)

Solved entries (count: 4):
COMPOUND: CN(C)CCCNc1nnc(-c2ccc(Cl)cc2)s1
UNIT_TAG: µM
IC50: 4.5
--
COMPOUND: Cc1cc(C)c(-c2nnc(NCCCN(C)C)s2)c(C)c1Br
UNIT_TAG: µM
IC50: 3.5
--
COMPOUND: CNCCCNc1nnc(-c2ccc(Cl)cc2Cl)s1
UNIT_TAG: µM
IC50: 14
--
COMPOUND: CNCCCNc1nnc(-c2c(C)cc(C)cc2C)s1.Cl.Cl [SR 45418 A, dihydrochloride]
UNIT_TAG: µM
IC50: 20

(I) CCN(CC)CCCNc1nnc(-c2c(C)cc(C)cc2C)s1
(II) CN1CCN(CCCNc2nnc(-c3ccc(Cl)cc3)s2)CC1
### Prompt Which value of IC50 is smaller, the one for I or the one for II ? Return value: the label identifying the chosen record.
### Response II
(II: 3.6 µM, I: 5.5 µM)

(1) Clc1ccc(-c2nnc(NCCCn3ccnc3)s2)c(Cl)c1
(2) Clc1ccc(-c2nnc(NCCCN3CCCC3)s2)c(Cl)c1
### Prompt Recorded IC50 values differ for 1 and 2 ; which one is higher? Return value: the label identifying the chosen record.
### Response 1

* * *

# Test system: M1 central muscarinic cholinergic receptors
# ASSAY_TEXT: Antagonism to rotatory behaviour induced by intrastriatal injection of pirenzepine in the mouse
# Assay type: in vivo, mouse (female, Swiss, CD 1)
# CONDITION_SUMMARY: Mus musculus, po; 3 mg/kg p.o., 4 hours before pirenzepine 1 μg intrastriatal; *p<0.05, **p<0.01 Student's test; read-out: % inhibition of pirenzepine-induced rotations
ENDPOINT_NAME: change in vivo at 3 mg/kg (%)
Please give a number only; it is taken to be in %.

Record Cc1cc(C)c(-c2nnc(NCCCN(C)C)s2)c(C)c1.Cl.Cl [SR 45341 A, dihydrochloride] . Reported change in vivo at 3 mg/kg: -74

Record CN(C)CCCNc1nnc(-c2ccc(F)cc2)s1 . Reported change in vivo at 3 mg/kg: -38

Record CCN(CCCN(C)C)c1nnc(-c2ccc(F)cc2)s1 . Reported change in vivo at 3 mg/kg: -20

Record CN1CCCC(CNc2nnc(-c3ccc(Cl)cc3)s2)C1 (centres unmarked) . Reported change in vivo at 3 mg/kg: -57

Record CCN(CC)CCCNc1nnc(-c2c(C)cc(C)cc2C)s1 . Reported change in vivo at 3 mg/kg: -32

Record CN(C)CCCNc1nnc(-c2ccc(Cl)cc2)s1 . Reported change in vivo at 3 mg/kg: -54

* * *

# TGT: UniProtKB P08482
# ASSAY_TEXT: biochemical
# Format: binding
ENDPOINT_NAME: IC50 (µM)
Please give a number only; it is taken to be in µM.

Record CN1CCC(N(C)c2nnc(-c3ccccc3)s2)CC1 . Reported IC50: 9

* * *

# TGT: type M1 muscarinic cholinergic receptor (Rattus norvegicus, UniProt P08482)
# ASSAY_TEXT: biochemical
# Format: binding
# CONDITION_SUMMARY: values correspond to IC50 3H-NMS (M2) / IC50 3H-PZ (M1)
ENDPOINT_NAME: ratio R between the IC50 for receptors M1 and M2 (selectivity)

(P) CN(C)CCCNc1nnc(-c2ccc(Cl)cc2)s1
(Q) CN1CCN(CCCNc2nnc(-c3ccc(Cl)cc3)s2)CC1
### Prompt Which value of ratio R between the IC50 for receptors M1 and M2 (selectivity) is smaller, the one for P or the one for Q ? Return value: the label identifying the chosen record.
### Response Q

* * *

# ASSAY_TEXT: Acute oral toxicity in mice
# Parameters: species or system Swiss, CD 1)
# CONDITION_SUMMARY: mouse, in vivo, female mice, 24 hours after administration, read-out: 50% lethal dose (DL50)
ENDPOINT_NAME: LD50 at 24 h

Record Cc1cc(C)c(-c2nnc(NCCCN(C)C)s2)c(C)c1.Cl.Cl [SR 45341 A] . Reported LD50 at 24 h: > 300 mg/kg

* * *

# TGT: type M1 muscarinic cholinergic receptor (Rattus norvegicus)
# ASSAY_TEXT: biochemical
# Assay type: binding
# CONDITION_SUMMARY: values correspond to IC50 3H-NMS (M2) / IC50 3H-PZ (M1)
ENDPOINT_NAME: ratio R between the IC50 for receptors M1 and M2 (selectivity)

Solved entries (count: 2):
RECORD_SMILES: CCN(CCCN(C)C)c1nnc(-c2ccc(F)cc2)s1
RESULT_VALUE: 8
--
RECORD_SMILES: CCN(CC)CCCNc1nnc(-c2c(C)cc(C)cc2C)s1
RESULT_VALUE: 5

(I) CNCCCNc1nnc(-c2ccc(Cl)cc2Cl)s1
(II) Clc1ccc(-c2nnc(NCCCN3CCCC3)s2)c(Cl)c1
### Prompt Recorded ratio R between the IC50 for receptors M1 and M2 (selectivity) values differ for I and II ; which one is higher? Return value: the label identifying the chosen record.
### Response II
(II: 15, I: 5)

(I) Cc1cc(C)c(-c2nnc(NCCCN(C)C)s2)c(C)c1Br
(II) CN(C)CCCNc1nnc(-c2ccc(Cl)cc2Cl)s1
### Prompt Recorded ratio R between the IC50 for receptors M1 and M2 (selectivity) values differ for I and II ; which one is higher? Return value: the label identifying the chosen record.
### Response II
(II: 37, I: 6)

(a) CCN(CC)CCCCNc1nnc(-c2ccccc2)s1
(b) Clc1ccc(-c2nnc(NCCCN3CCOCC3)s2)cc1
### Prompt Which value of ratio R between the IC50 for receptors M1 and M2 (selectivity) is smaller, the one for a or the one for b ? Return value: the label identifying the chosen record.
### Response a

* * *

# TGT: type M2 muscarinic cholinergic receptor (Cavia porcellus, UniProt H0VRN8)
# Sequence (H0VRN8 1-466): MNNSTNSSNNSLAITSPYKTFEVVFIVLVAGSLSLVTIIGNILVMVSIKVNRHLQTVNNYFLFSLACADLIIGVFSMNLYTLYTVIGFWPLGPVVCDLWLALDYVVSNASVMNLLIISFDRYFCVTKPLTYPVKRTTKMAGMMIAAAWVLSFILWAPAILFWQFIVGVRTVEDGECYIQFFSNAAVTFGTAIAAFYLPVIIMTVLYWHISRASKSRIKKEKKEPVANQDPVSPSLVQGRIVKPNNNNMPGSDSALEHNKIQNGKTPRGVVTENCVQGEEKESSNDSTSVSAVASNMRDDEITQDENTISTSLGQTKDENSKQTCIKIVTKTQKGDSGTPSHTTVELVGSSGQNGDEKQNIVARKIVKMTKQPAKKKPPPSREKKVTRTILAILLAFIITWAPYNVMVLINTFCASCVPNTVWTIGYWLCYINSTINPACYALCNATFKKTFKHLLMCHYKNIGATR
Counter-ions that a name gives are not always drawn.
ENDPOINT_NAME: IC50 (µM)

Solved entries (count: 5):
COMPOUND: CCN(CC)CCCCNc1nnc(-c2ccccc2)s1
IC50 [µM]: 34

COMPOUND: Cc1cc(C)c(-c2nnc(NCCCN(C)C)s2)c(C)c1.Cl.Cl [SR 45341 A, dihydrochloride]
IC50 [µM]: 72

COMPOUND: CN(C)CCCNc1nnc(-c2ccc(Cl)cc2)s1
IC50 [µM]: 50

COMPOUND: CN(C)CCCNc1nnc(-c2ccc(Cl)cc2Cl)s1
IC50 [µM]: 26

COMPOUND: CCN(CC)CCCNc1nnc(-c2c(C)cc(C)cc2C)s1
IC50 [µM]: 30

(P) Clc1ccc(-c2nnc(NCCCn3ccnc3)s2)c(Cl)c1
(Q) CN1CCN(CCCNc2nnc(-c3ccc(Cl)cc3)s2)CC1
(R) CNC1CCN(c2nnc(-c3ccccc3)s2)CC1 [SR 44825 A, dihydrochloride]
### Prompt Hey, quick one: sort these by IC50, largest value first please. Form entry: labels listed in requested order.
### Response R, P, Q
(R: 80 µM, P: 40 µM, Q: 26 µM)

* * *

# TGT: type M1 muscarinic cholinergic receptor (Rattus norvegicus)
# ASSAY_TEXT: biochemical
# Assay type: binding
# CONDITION_SUMMARY: displacement of 3H-PZ, rat hippocampus homogenate, 4° C., 2 hours; read-out: IC50 3H-PZ (M1)
ENDPOINT_NAME: IC50 (µM)

RECORD_SMILES: CCN(CCCN(C)C)c1nnc(-c2ccc(F)cc2)s1
UNIT_TAG: µM
IC50: 2.4

RECORD_SMILES: CCN(CC)CCCCNc1nnc(-c2ccccc2)s1
UNIT_TAG: µM
IC50: 5

(A) CN(C)CCCNc1nnc(-c2ccc(Cl)cc2Cl)s1
(B) CN(C)CCCNc1nnc(-c2ccccc2)s1
(C) Clc1ccc(-c2nnc(NCCCN3CCOCC3)s2)cc1
### Prompt Hey, quick one: sort these by IC50, largest value first please. Form entry: labels listed in requested order.
### Response C, B, A

Origin of values: patent US5086053A
